Experiment: GSH reactivity assessed as half life at pH 7.4 incubated for 24 hrs by LC-UV-MS analysis
Assay type: physicochemical
Conditions: glutathione (GSH) solution
attribute measured: half-life (h)
Lab book: enter the figure in h, no units written.

Item: C=CC(=O)N1CCC[C@@H]1c1ccccc1 | half-life: 13.7

* * *

Experiment: Lipophilicity, logD of compound at pH 7.4 by shake-flask method
Format: physicochemical
Details: buffer
attribute measured: logD
No unit in the answer, please; the number alone is enough.

The measured logD associated with C=CC(=O)N1CCC[C@@H]1c1ccccc1 reads 1.7

* * *

Target: UniProtKB Q16548
Sequence (whole entry): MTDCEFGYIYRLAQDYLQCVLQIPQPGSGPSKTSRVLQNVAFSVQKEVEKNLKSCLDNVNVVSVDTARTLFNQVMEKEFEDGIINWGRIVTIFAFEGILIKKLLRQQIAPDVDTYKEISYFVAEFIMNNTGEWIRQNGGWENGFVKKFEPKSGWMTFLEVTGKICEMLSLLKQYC
Assay: Binding affinity to N-terminal His6-tagged recombinant human Bfl-1 (1 to 151 residues) expressed in Escherichia coli BL21-Gold (DE3) cells assessed as Kinact/ki incubated for 10 to 90 mins by MS analysis
Settings: time 10-90 min
Measured K accompanies every entry in the list below.
Express the result in M⁻¹ s⁻¹ but write the number alone.

Consider C=CC(=O)N(Cc1ccccc1OCC(N)=O)c1ccc(Cl)cc1 . Its measured K is 5.5

K reading for C=CC(=O)N(C)[C@@H](c1ccc(Cl)cc1)C1CCOCC1 (racemic) : 0.8

* * *

Collected K values appear next to each entry.
Molecular target: Bcl-2-related protein A1 (Homo sapiens) (UniProt Q16548)
Experiment: Binding affinity to N-terminal His6-tagged recombinant human Bfl-1 (1 to 151 residues) expressed in Escherichia coli BL21-Gold (DE3) cells assessed as Kinact/ki incubated for 10 to 90 mins by MS analysis
Conditions: time 10-90 min
Kindly answer with a numeric value in M⁻¹ s⁻¹, unit omitted.

Below: 3 compounds and their reported K.
{"compound": "C=CC(=O)Nc1cc(CN2CCCC2)ccc1-c1ccc(OC)cc1C", "units symbol": "M⁻¹ s⁻¹", "K": 6.8}
{"compound": "C=CC(=O)N1CCC[C@@H]1c1ccccc1", "units symbol": "M⁻¹ s⁻¹", "K": 0.7}
{"compound": "C=CC(=O)N1C[C@@H](Oc2cc(Cl)c(F)cc2C#N)[C@H]1CCC (racemic)", "units symbol": "M⁻¹ s⁻¹", "K": 9.5}

Now turn to the next compound.
The compound C=CC(=O)N(Cc1ccc(OC)cc1)c1cccc(Cl)c1 , tested on Bcl-2-related protein A1 (Homo sapiens) (UniProt Q16548), showed K of 7.5
